# key: entry, value: Total binding (TB)
tested-on: PSMA (Homo sapiens)
Construct: 100 μL of freshly harvested PSMA cells; endogenous in cells; host or cells: 'PSMA cells' in the method
method-description: In vitro binding signals of 68Ga labeled ligands in LNCaP tumor homogenates
recorded-conditions: Ga-68 radiolabeled ligands, 37° C. 60 min
measurement-label: Total binding (TB)

>>> value_observed("O=C(O)CC[C@H](NC(=O)N[C@@H](CCCCNC(=O)CCCCCNC(=O)CCc1ccc(O)c(CN(CCN(CC(=O)O)Cc2cc(CCC(=O)NCCNC(=O)CN3CCN(CC(=O)O)CCN(CC(=O)O)CCN(CC(=O)O)CC3)ccc2O)CC(=O)O)c1)C(=O)O)C(=O)O [Compound 1g]")
10.5
>>> value_observed("C[C@H](NC(=O)CCc1ccc(O)c(CN(CCN(CC(=O)O)Cc2cc(CCC(=O)NCCCCCC(=O)NCCCC[C@H](NC(=O)N[C@@H](CCC(=O)O)C(=O)O)C(=O)O)ccc2O)CC(=O)O)c1)C(=O)O [Compound 1d]")
12.6
>>> value_observed("O=C(O)CC[C@H](NC(=O)N[C@@H](CCCCNC(=O)CCCCCNC(=O)CCc1ccc(O)c(CN(CCN(CC(=O)O)Cc2cc(CCC(=O)N[C@H]3C(O)O[C@H](CO)[C@@H](O)[C@@H]3O)ccc2O)CC(=O)O)c1)C(=O)O)C(=O)O (stereo partly shown) [Compound 1b]")
10.8
>>> value_observed("O=C(O)CC[C@H](NC(=O)N[C@@H](CCCCNC(=O)CCCCCNC(=O)CCc1ccc(O)c(CN(CCN(CC(=O)O)Cc2nc(CCC(=O)NCCCCCC(=O)NCCCC[C@H](NC(=O)N[C@@H](CCC(=O)O)C(=O)O)C(=O)O)ccc2O)CC(=O)O)n1)C(=O)O)C(=O)O [Compound 3]")
10.0

* * *

method-description: Biodistribution of radiotracers in normal mice
Type: in vivo, mouse
recorded-conditions: normal male mice, 2 min
measurement-label: Biodistribution: Heart (% dose/g)

>>> value_observed("C[C@H](NC(=O)CCc1ccc2c(c1)C[N+]13CC[N+]45CC(=O)[O][68Ga-3]41([O]C(=O)C3)([O]c1ccc(CCC(=O)NCCCCCC(=O)NCCCC[C@H](NC(=O)N[C@@H](CCC(=O)O)C(=O)O)C(=O)O)cc1C5)[O]2)C(=O)O (stereo partly shown) [[^68Ga]1d]")
3.18
>>> value_observed("O=C(O)CC[C@H](NC(=O)N[C@@H](CCCCNC(=O)CCCCCNC(=O)CCc1ccc2c(n1)C[N+]13CC[N+]45CC(=O)[O][68Ga-3]14([O]C(=O)C3)([O]2)[O]c1ccc(CCC(=O)NCCCCCC(=O)NCCCC[C@H](NC(=O)N[C@@H](CCC(=O)O)C(=O)O)C(=O)O)nc1C5)C(=O)O)C(=O)O (stereo partly shown) [[^68Ga]3]")
4.34
>>> value_observed("O=C(O)CCc1ccc2c(c1)C[N+]13CC[N+]45CC(=O)[O][68Ga-3]14([O]C(=O)C3)([O]2)[O]c1ccc(CCC(=O)NCCCCCC(=O)NCCCC[C@H](NC(=O)N[C@@H](CCC(=O)O)C(=O)O)C(=O)O)cc1C5 (stereo partly shown) [[^68Ga]1a, reference compound]")
3.32
>>> value_observed("O=C(O)CC[C@H](NC(=O)N[C@@H](CCCCNC(=O)CCCCCNC(=O)CCc1ccc2c(c1)C[N+]13CC[N+]45CC(=O)[O][68Ga-3]14([O]C(=O)C3)([O]2)[O]c1ccc(CCC(=O)NCC(=O)O)cc1C5)C(=O)O)C(=O)O (stereo partly shown) [[^68Ga]1c]")
3.48

* * *

method-description: Biodistribution of radiotracers in normal mice
Assay type: in vivo, mouse
recorded-conditions: normal male mice, 60 min
measurement-label: Biodistribution: Muscle (% dose/g)

>>> value_observed("O=C(O)CCc1ccc2c(n1)C[N+]13CC[N+]45CC(=O)[O][68Ga-3]14([O]C(=O)C3)([O]2)[O]c1ccc(CCC(=O)NCCCCCC(=O)NCCCC[C@H](NC(=O)N[C@@H](CCC(=O)O)C(=O)O)C(=O)O)nc1C5 (stereo partly drawn) [[^68Ga]2]")
0.24
>>> value_observed("O=C(O)CCc1ccc2c(c1)C[N+]13CC[N+]45CC(=O)[O][68Ga-3]14([O]C(=O)C3)([O]2)[O]c1ccc(CCC(=O)NCCCCCC(=O)NCCCC[C@H](NC(=O)N[C@@H](CCC(=O)O)C(=O)O)C(=O)O)cc1C5 (stereo partly drawn) [[^68Ga]1a, reference compound]")
0.19
>>> value_observed("O=C(O)CC[C@H](NC(=O)N[C@@H](CCCCNC(=O)CCCCCNC(=O)CCc1ccc2c(c1)C[N+]13CC[N+]45CC(=O)[O][68Ga-3]14([O]C(=O)C3)([O]2)[O]c1ccc(CCC(=O)NCC(=O)O)cc1C5)C(=O)O)C(=O)O (stereo partly drawn) [[^68Ga]1c]")
0.60

* * *

method-description: Biodistribution of radiotracers in normal mice
Format: in vivo, mouse
recorded-conditions: normal male mice, 2 min
Catalogue of compounds with associated Biodistribution: Blood
measurement-label: Biodistribution: Blood

>>> value_observed("O=C(O)CC[C@H](NC(=O)N[C@@H](CCCCNC(=O)CCCCCNC(=O)CCc1ccc2c(c1)C[N+]13CC[N+]45CC(=O)[O][68Ga-3]14([O]C(=O)C3)([O]2)[O]c1ccc(CCC(=O)NCCNC(=O)CN2CCN(CC(=O)O)CCN(CC(=O)O)CCN(CC(=O)O)CC2)cc1C5)C(=O)O)C(=O)O (some centres unmarked) [[^68Ga]1g]")
"7.62 ± 0.08 % dose/g"
>>> value_observed("O=C(O)CC[C@H](NC(=O)N[C@@H](CCCCNC(=O)CCCCCNC(=O)CCc1ccc2c(n1)C[N+]13CC[N+]45CC(=O)[O][68Ga-3]14([O]C(=O)C3)([O]2)[O]c1ccc(CCC(=O)NCCCCCC(=O)NCCCC[C@H](NC(=O)N[C@@H](CCC(=O)O)C(=O)O)C(=O)O)nc1C5)C(=O)O)C(=O)O (some centres unmarked) [[^68Ga]3]")
"8.94 ± 1.57 % dose/g"
>>> value_observed("O=C(O)CCc1ccc2c(c1)C[N+]13CC[N+]45CC(=O)[O][68Ga-3]14([O]C(=O)C3)([O]2)[O]c1ccc(CCC(=O)NCC(=O)N[C@@H](Cc2ccc(OCC(=O)N[C@@H](Cc3ccccc3)C(=O)NCCCC[C@H](NC(=O)N[C@@H](CCC(=O)O)C(=O)O)C(=O)O)cc2)C(=O)O)cc1C5 (some centres unmarked) [[^68Ga]5b]")
"7.94 ± 0.52 % dose/g"
>>> value_observed("O=C(O)CCc1ccc2c(c1)C[N+]13CC[N+]45CC(=O)[O][68Ga-3]14([O]C(=O)C3)([O]2)[O]c1ccc(CCC(=O)NCCCCCC(=O)NCCCC[C@H](NC(=O)N[C@@H](CCC(=O)O)C(=O)O)C(=O)O)cc1C5 (some centres unmarked) [[^68Ga]1a, reference compound]")
"7.75 ± 1.60 % dose/g"
>>> value_observed("O=C(O)CCc1ccc(O)c(CN(CCN(CC(=O)O)Cc2cc(CCC(=O)NCCCCCC(=O)NCCCC[C@H](NC(=O)N[C@@H](CCC(=O)O)C(=O)O)C(=O)O)ccc2O)CC(=O)O)n1 [[^68Ga]4a, metal not drawn]")
"8.59 ± 0.82 % dose/g"

* * *

tested-on: PSMA (Homo sapiens, UniProt Q04609)
Construct: 100 μL of freshly harvested PSMA cells; endogenous in cells; host or cells: 'PSMA cells' in the method
Sequence (Q04609 whole entry): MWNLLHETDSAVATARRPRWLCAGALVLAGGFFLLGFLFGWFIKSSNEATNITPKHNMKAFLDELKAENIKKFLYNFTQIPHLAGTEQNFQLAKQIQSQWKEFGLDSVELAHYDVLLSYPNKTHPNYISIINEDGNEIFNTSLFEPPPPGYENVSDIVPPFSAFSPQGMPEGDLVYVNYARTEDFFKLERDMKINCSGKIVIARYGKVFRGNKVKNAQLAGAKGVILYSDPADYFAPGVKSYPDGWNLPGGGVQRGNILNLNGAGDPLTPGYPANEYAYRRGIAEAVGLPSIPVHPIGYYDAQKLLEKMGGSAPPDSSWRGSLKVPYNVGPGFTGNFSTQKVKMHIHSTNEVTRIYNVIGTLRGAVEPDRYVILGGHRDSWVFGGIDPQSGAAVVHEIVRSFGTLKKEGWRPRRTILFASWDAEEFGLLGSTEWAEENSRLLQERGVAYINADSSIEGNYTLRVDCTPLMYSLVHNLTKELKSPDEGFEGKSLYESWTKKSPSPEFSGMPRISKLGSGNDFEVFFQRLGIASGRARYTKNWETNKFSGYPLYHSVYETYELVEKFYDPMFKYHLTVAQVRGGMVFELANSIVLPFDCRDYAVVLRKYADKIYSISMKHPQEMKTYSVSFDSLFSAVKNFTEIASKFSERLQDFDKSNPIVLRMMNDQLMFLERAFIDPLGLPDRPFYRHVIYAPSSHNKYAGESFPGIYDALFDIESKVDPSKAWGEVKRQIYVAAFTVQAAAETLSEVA
method-description: In vitro binding signals of 68Ga labeled ligands in LNCaP tumor homogenates
recorded-conditions: Ga-68 radiolabeled ligands, with 1a (PSMA11) 10 μM
Classify as follows. Reported Nonspecific binding (NSB) greater than or equal to 1: True. Reported Nonspecific binding (NSB) below: False.

>>> category("O=C(O)CCc1ccc(O)c(CN(CCN(CC(=O)O)Cc2cc(CCC(=O)NCCCCCC(=O)NCCCC[C@H](NC(=O)N[C@@H](CCC(=O)O)C(=O)O)C(=O)O)ccc2O)CC(=O)O)c1 [Compound 1a, Glu-NH—CO—NH-Lys(Ahx)-HBED-CC, reference compound]")
"True"
>>> category("O=C(O)CCc1ccc(O)c(CN(CCN(CC(=O)O)Cc2cc(CCC(=O)NCCCCCC(=O)NCCCC[C@H](NC(=O)N[C@@H](CCC(=O)O)C(=O)O)C(=O)O)ccc2O)CC(=O)O)n1")
"True"
>>> category("O=C(O)CCc1ccc(O)c(CN(CCN(CC(=O)O)Cc2cc(CCC(=O)NCC(=O)N[C@@H](Cc3ccc(OCC(=O)N[C@@H](Cc4ccccc4)C(=O)NCCCC[C@H](NC(=O)N[C@@H](CCC(=O)O)C(=O)O)C(=O)O)cc3)C(=O)O)ccc2O)CC(=O)O)c1")
"False"
>>> category("O=C(O)CC[C@H](NC(=O)N[C@@H](CCCCNC(=O)CCCCCNC(=O)CCc1ccc(O)c(CN(CCN(CC(=O)O)Cc2cc(CCC(=O)N[C@@H](CC(=O)O)C(=O)O)ccc2O)CC(=O)O)c1)C(=O)O)C(=O)O")
"True"
>>> category("O=C(O)CCc1ccc(O)c(CN(CCN(CC(=O)O)Cc2nc(CCC(=O)NCCCCCC(=O)NCCCC[C@H](NC(=O)N[C@@H](CCC(=O)O)C(=O)O)C(=O)O)ccc2O)CC(=O)O)c1")
"True"
